- Tested on: SHIP1 (Homo sapiens, UniProt Q92835)
- Sequence (Q92835 whole entry, species assumed): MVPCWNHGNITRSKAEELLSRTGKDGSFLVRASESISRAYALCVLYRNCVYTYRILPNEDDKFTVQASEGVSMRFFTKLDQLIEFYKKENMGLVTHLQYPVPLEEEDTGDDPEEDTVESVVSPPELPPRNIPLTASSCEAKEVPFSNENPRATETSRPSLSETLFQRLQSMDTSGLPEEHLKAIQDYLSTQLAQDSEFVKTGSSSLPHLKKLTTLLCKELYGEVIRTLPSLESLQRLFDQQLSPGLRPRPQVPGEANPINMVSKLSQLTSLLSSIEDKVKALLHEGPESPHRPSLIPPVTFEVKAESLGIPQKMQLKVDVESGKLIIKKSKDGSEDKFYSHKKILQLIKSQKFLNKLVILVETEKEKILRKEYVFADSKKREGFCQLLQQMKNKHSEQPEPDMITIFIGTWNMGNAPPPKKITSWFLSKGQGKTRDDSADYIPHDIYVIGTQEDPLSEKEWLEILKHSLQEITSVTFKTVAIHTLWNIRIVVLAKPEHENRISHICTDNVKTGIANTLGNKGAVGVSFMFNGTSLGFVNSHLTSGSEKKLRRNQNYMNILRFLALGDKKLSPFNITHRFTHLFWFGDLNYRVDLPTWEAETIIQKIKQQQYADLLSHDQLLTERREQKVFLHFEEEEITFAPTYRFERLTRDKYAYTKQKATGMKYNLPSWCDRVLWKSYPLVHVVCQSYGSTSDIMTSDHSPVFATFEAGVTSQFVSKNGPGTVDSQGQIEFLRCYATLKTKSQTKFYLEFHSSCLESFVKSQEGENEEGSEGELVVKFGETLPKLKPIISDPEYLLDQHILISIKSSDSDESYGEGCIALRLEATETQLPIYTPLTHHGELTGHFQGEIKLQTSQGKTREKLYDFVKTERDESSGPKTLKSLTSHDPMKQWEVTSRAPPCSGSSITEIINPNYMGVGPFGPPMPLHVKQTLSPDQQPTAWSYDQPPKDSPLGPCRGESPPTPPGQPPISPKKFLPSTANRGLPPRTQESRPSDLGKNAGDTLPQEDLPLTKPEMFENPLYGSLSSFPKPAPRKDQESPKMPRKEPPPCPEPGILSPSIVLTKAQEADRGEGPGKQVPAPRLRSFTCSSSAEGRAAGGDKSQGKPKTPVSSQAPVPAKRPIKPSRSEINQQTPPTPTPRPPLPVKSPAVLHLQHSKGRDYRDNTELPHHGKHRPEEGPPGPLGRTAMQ
- Test description: malachite green assay for phosphatase activity, SHIP1
- Assay type: biochemical
- Experimental context: malachite green assay; compounds evaluated at 1 mM; described in words
Quantity kind: Inhibition of SHIP1

Compound	Assay result
CC(C)CCC[C@@H](C)[C@H]1CC[C@H]2[C@@H]3CCC4C[C@H](N)CC[C@]4(C)[C@H]3CC[C@]12C.Cl (stereo partly drawn) [Compound 1, 3α-Aminocholestane Hydrochloride]	significant activity
CC(C)CCC[C@@H](C)[C@H]1CC[C@H]2[C@@H]3CC[C@H]4C[C@H](NS(C)(=O)=O)CC[C@]4(C)[C@H]3CC[C@]12C [Compound 12]	inactive
CC(=O)NC1CCC2(C)C(CCC3C2CCC2(C)C(C(C)CCCC(C)C)CCC32)C1 (stereo not shown) [Compound 13]	inactive
CC(C)CCCC(C)C1CCC2C3CCC4CC(N)CCC4(C)C3CCC12C.Cl (stereo not shown) [Compound 11]	significant activity

###

- Tested on: SHIP2 (Homo sapiens)
- Sequence (O15357 whole entry, species assumed): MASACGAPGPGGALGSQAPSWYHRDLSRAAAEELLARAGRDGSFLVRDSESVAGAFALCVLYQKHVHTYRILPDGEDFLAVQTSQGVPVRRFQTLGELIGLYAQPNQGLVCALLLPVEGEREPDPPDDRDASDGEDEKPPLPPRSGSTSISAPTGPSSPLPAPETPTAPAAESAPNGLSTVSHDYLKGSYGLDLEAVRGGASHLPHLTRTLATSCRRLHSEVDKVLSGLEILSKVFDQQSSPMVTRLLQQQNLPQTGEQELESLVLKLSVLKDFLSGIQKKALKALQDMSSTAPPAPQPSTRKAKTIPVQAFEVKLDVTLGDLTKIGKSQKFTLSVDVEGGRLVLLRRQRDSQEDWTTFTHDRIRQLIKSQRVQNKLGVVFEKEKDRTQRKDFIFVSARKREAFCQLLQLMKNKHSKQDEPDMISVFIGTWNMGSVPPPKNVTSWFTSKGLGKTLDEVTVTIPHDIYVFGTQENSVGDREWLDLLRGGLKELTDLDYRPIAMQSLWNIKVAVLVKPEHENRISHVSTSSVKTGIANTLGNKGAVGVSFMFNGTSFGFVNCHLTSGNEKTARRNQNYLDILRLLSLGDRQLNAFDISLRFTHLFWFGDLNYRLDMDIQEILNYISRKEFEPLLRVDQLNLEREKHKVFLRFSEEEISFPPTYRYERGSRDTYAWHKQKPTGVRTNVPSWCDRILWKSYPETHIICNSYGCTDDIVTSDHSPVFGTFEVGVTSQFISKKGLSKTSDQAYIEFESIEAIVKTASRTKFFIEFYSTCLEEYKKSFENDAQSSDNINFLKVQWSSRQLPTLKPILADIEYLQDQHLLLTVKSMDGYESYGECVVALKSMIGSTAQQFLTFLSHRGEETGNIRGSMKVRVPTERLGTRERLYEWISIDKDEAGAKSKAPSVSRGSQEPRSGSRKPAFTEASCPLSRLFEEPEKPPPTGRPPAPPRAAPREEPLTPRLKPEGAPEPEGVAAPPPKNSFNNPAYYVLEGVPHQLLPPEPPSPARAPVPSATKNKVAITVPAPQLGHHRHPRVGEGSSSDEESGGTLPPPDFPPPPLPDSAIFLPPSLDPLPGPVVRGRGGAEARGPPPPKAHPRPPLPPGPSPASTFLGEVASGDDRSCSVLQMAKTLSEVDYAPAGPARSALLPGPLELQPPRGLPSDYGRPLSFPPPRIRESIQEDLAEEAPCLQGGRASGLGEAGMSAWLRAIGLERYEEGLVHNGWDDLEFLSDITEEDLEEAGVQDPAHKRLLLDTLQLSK
- Test description: malachite green assay for phosphatase activity, SHIP2
- Type: biochemical
- Experimental context: compounds evaluated at 1 mM, described in words

Molecule	Inhibition of SHIP2
CC(C)CCC[C@@H](C)[C@H]1CC[C@H]2[C@@H]3CC[C@H]4C[C@H](NS(C)(=O)=O)CC[C@]4(C)[C@H]3CC[C@]12C	inactive
CC(C)CCC[C@@H](C)[C@H]1CC[C@H]2[C@@H]3CCC4C[C@H](N)CC[C@]4(C)[C@H]3CC[C@]12C.Cl (stereo partly drawn) [Compound 1, 3α-Aminocholestane Hydrochloride]	significant activity
CC(=O)NC1CCC2(C)C(CCC3C2CCC2(C)C(C(C)CCCC(C)C)CCC32)C1 (stereo not drawn)	inactive
CC(C)CCCC(C)C1CCC2C3CCC4CC(N)CCC4(C)C3CCC12C.Cl (stereo not drawn)	significant activity

Data provenance is paper PMC12046972.
